What follows is literature data on IC50 for BTK (Homo sapiens).

**Q:** Look up IC50 with BTK (Homo sapiens) for this compound: Cc1cc(-c2ccnc(Nc3ccc(N4CCN(C)CC4)cn3)c2)ccc1CNC(=O)c1cnc(C(C)(C)C)s1
**A:** < 10 nM

**Q:** Look up IC50 with BTK (Homo sapiens) for this compound: Cc1cc(-c2ccnc(N)n2)ccc1CNC(=O)c1cc2n(n1)CCNC2
**A:** > 10000 nM

**Q:** Look up IC50 with BTK (Homo sapiens) for this compound: Cc1ccc(F)cc1C(=O)c1c[nH]c2ncc(-c3cccc(N)c3)cc12
**A:** ≤ 10000 nM

**Q:** Look up IC50 with BTK (Homo sapiens) for this compound: Cn1cnc2cc(-c3cccc4c(N)c(C(N)=O)nnc34)cnc21
**A:** 39800 nM

**Q:** Look up IC50 with BTK (Homo sapiens) for this compound: CC(C)(C)c1cc(F)c2c(=O)n(-c3cccc(-n4cc(C(N)=O)c5ccc(Br)nc54)c3CO)ncc2c1
**A:** 7.74 nM

**Q:** Look up IC50 with BTK (Homo sapiens) for this compound: Cc1cc(-c2cc(Nc3cc4n(n3)CCN(C)C4)ncn2)ccc1CNC(=O)c1cc(C(C)(C)C)on1
**A:** < 10 nM

**Q:** Look up IC50 with BTK (Homo sapiens) for this compound: Cc1cc(NCC(=O)NC2CCCN(c3ncnc4[nH]ccc34)C2)n(C(C)(C)C)n1 (centres unmarked)
**A:** > 10000 nM

**Q:** Look up IC50 with BTK (Homo sapiens) for this compound: CC#CC(=O)N1CC2(CC2)C[C@H]1c1nc(-c2ccc(C(C)(O)c3ccccc3)cc2)c2c(N)nccn12 (some centres unmarked)
**A:** 18 nM

---

What follows is literature data on pIC50 for BTK (Homo sapiens, UniProt Q06187).
pIC50 is a log-scale quantity: -log10 of the concentration expressed in molar.

**Q:** Look up pIC50 with BTK (Homo sapiens, UniProt Q06187) for this compound: Cc1ccc2c(N)c(C(N)=O)nnc2c1-c1ccc2[nH]nnc2c1
Sequence (Q06187 whole entry): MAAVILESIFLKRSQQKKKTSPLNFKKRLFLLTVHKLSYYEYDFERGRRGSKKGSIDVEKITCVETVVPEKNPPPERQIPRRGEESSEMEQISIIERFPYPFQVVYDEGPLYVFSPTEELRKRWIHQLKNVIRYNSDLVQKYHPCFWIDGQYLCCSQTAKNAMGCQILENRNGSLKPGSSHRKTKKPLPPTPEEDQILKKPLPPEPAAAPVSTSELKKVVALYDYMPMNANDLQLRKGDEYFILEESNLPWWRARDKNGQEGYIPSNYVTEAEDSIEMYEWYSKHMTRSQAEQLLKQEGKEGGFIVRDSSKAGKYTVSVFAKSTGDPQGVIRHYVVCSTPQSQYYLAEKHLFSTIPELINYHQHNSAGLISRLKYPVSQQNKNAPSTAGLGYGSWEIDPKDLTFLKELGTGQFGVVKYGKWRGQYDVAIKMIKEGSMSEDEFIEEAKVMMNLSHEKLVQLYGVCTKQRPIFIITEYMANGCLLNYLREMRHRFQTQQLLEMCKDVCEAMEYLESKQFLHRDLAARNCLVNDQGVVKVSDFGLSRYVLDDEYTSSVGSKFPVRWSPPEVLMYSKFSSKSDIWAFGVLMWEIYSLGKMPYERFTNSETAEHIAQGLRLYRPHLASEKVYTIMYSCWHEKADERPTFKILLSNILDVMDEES
**A:** 7.70

**Q:** Look up pIC50 with BTK (Homo sapiens, UniProt Q06187) for this compound: C=CC(=O)N1CC[C@]2(C1)C[C@H](n1c(NC(=O)c3cc(C(C)C)no3)nc3cc(CN4CCCC4)ccc31)C2
**A:** 7.92

**Q:** Look up pIC50 with BTK (Homo sapiens, UniProt Q06187) for this compound: CC#CC(=O)N(C)[C@H]1C[C@@H](n2nc(-c3ccc(Oc4cc(F)cc(OCc5cnc(C)nc5)c4)cc3)c3c(N)ncnc32)C1
**A:** 8.10

**Q:** Look up pIC50 with BTK (Homo sapiens, UniProt Q06187) for this compound: CCOc1cc(C(=O)Nc2cc(C(F)(F)F)n(C)n2)ccc1-c1nc([C@@]2(C)CC[C@@H]3COC(=O)N3C2)n2ccnc(N)c12
**A:** 8.51

**Q:** Look up pIC50 with BTK (Homo sapiens, UniProt Q06187) for this compound: COc1cc2cn[nH]c2cc1-c1cccc2c(N)c(C(N)=O)nnc12
**A:** 8.40

**Q:** Look up pIC50 with BTK (Homo sapiens, UniProt Q06187) for this compound: CN(C)C/C=C/C(=O)N1CCC[C@@H]1Cn1nc(-c2ccc(Oc3ccccc3)cc2)c2c(N)ncnc21
**A:** 9.04
